EXPERIMENTAL PROTOCOL: G protein-coupled receptor (GPCR) small molecule agonists, calcium flux assay: HEK293 wild type cell line counter screen (AID 1920065)
CONDITION DETAILS: HEK293 WT calcium flux, fluorescence, agonist mode; series mostly up to 57.6 µM
Activity calls are given as the source filed them. The call rests on the fitted dose curve.
ENDPOINT LABEL: outcome

Check out these entries, answers already filled in.
> print(dat)
                      molecule  endpoint.label  measured
1            Nc1ncnc2nc[nH]c12         outcome  inactive
2  CC(C)(C)c1cccc(C(C)(C)C)c1O         outcome  inactive
3                CCCCCCCC(=O)O         outcome  inactive
4  C=CC(=O)NC(C)(C)CS(=O)(=O)O         outcome  inactive
5     CN1C(=O)CC[C@H]1c1cccnc1         outcome  inactive

Ask: For C=CC(C)(C)C , what is its reported outcome?
Reply: inactive

Ask: Would you kindly repeat that for CCCCOCCOCCSC#N ?
Reply: inactive

Ask: Then O=C(CC(C(=O)OC1CCCCC1)S(=O)(=O)O)OC1CCCCC1 (centres undefined) ?
Reply: inactive

###

EXPERIMENTAL PROTOCOL: p53 small molecule agonists, cell-based qHTS assay with human liver microsomes (AID 1963577);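 further: p53 response element beta-lactamase reporter cells with liver microsomes plus NADPH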
CONDITION DETAILS: HCT-116 p53RE-bla with human liver microsomes, ratio, 16 h; series mostly up to 66 µM
Inconclusive results are not listed. The source made the active and inactive calls. Calls come from the whole dose curve.
ENDPOINT LABEL: outcome

Solved entries (count: 4):
> print(dat)
                          compound  measured
1                      C=CC(C)(C)C  inactive
2  CC(O)C(=O)O (centres undefined)  inactive
3      CN(C)CCOC(=O)COc1ccc(Cl)cc1  inactive
4                    C=CC(=O)OCCCC  inactive

Read the next record carefully.
Ask: Entry CC(=O)Oc1ccc(C)cc1 has what outcome?
Reply: inactive

###

ASSAYED SYSTEM: KiSS-1 receptor (Homo sapiens)
EXPERIMENTAL PROTOCOL: Human kisspeptin (KISS1R) small molecule agonists, calcium flux assay in KISS1R-HEK293 cells (AID 1920064)
CONDITION DETAILS: KISS1R-HEK293, calcium flux fluorescence, agonist; series mostly up to 76.8 µM
The source made the active and inactive calls. Calls follow the shape of the dose curve; as a rule, active = well fitted activation curve with a large enough effect in the repeat runs; inconclusive = weak or mixed curves; inactive = flat fitted curve, though single readings scatter.
ENDPOINT LABEL: outcome

# example entries with known answers
> print(dat)
                                  compound                  assayed.system  measured
 1                             NS(=O)(=O)O  KiSS-1 receptor (Homo sapiens)  inactive
 2           C=C(C)C(=O)OCCC[Si](OC)(OC)OC  KiSS-1 receptor (Homo sapiens)  inactive
 3                    O=C(O)CCCCCCCCC(=O)O  KiSS-1 receptor (Homo sapiens)  inactive
 4                 CCN(CC)C(=O)c1cccc(C)c1  KiSS-1 receptor (Homo sapiens)  inactive
 5                         CCCCCCCCCC(=O)O  KiSS-1 receptor (Homo sapiens)  inactive
 6          Nc1ccc2c(O)cc(S(=O)(=O)O)cc2c1  KiSS-1 receptor (Homo sapiens)  inactive
 7     CCCCCCCCCCCCOC(=O)c1cc(O)c(O)c(O)c1  KiSS-1 receptor (Homo sapiens)  inactive
 8                   Nc1ccccc1[N+](=O)[O-]  KiSS-1 receptor (Homo sapiens)  inactive
 9  O=C(O)CC(O)C(=O)O (stereo unspecified)  KiSS-1 receptor (Homo sapiens)  inactive
10                                C1COCCN1  KiSS-1 receptor (Homo sapiens)  inactive

Ask: Which outcome reading was recorded for the compound Cc1ncc([N+](=O)[O-])n1C ?
Reply: inactive

Ask: Then CCCCCCCCCCCCCC[N+](C)(C)Cc1ccccc1 ?
Reply: inactive

Ask: Now try CCCCCCCCCCCCc1ccccc1O .
Reply: inactive

Ask: # repeat for Cc1ccc(S(=O)(=O)O)cc1C
Reply: inactive

Ask: Also, C#C[C@]1(O)CC[C@H]2[C@@H]3CCC4=CC(=O)CC[C@@H]4[C@H]3CC[C@@]21CC please.
Reply: inactive

Ask: Input Cc1ccc(S(=O)(=O)NCl)cc1
Reply: inactive

Ask: Please do the same for C1N2CN3CN1CN(C2)C3 as well.
Reply: inactive

Ask: Now this one: CC(C)=CCC/C(C)=C/C=O
Reply: inactive

Ask: Next compound up: CN(C)Cc1cc(CN(C)C)c(O)c(CN(C)C)c1
Reply: inactive

Ask: Further, for CCCCOC(=O)CCCCCCCCC(=O)OCCCC ?
Reply: inactive

Ask: Entry C=C(C)C(=O)O please
Reply: inactive

Ask: Try CCc1cc(C(N)=S)ccn1 next.
Reply: inactive

Ask: Param item: COC(=O)c1ccc(O)cc1
Reply: inactive
